Provide the recorded corrected activity, negative = more killing for the entries that follow.
Assay: small molecules boosting NK-mediated OVCAR3 lysis – imaging, primary NK cells, calcein-AM imaging, primary screen (AID 1508625);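 also: compound given to NK cells 16 h before adding targets at 1.5 to 1 ratio; reference of the scale not given here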
Conditions: OVCAR3 lysis by primary NK cells, at 5 µM
Answers are plain numbers, in %.

// known answers, use as guide
{"columns": ["compound", "result"],
 "data": [
  ["Cc1c(NC(=O)COc2ccc(Oc3ccccc3)cc2)c(=O)n(-c2ccccc2)n1C", 1.22],
  ["CCc1ccc(NC(=O)c2ccccc2NC(=O)c2cccc(OC)c2)cc1", 1.91]
]}

In one line, give reported corrected activity, negative = more killing of the entry CSc1nnc2c(n1)OC(c1ccc(OCC(=O)O)cc1)Nc1ccccc1-2 (stereo not drawn) .
-2.58
